target_desc: Bromodomain-containing protein 4 (Homo sapiens, UniProt O60885)
assay_overview: Competitive binding affinity to human partial length BRD4 (BD1,2) (N44 to E460 residues) expressed in bacterial expression system by BROMOscan assay
# Kd per record follows

smiles_representation: Cc1noc(C)c1-c1ccc2nc(-c3cnn(CCO)c3)nc(N3CCOC[C@@H]3c3ccccc3)c2c1
Kd / nM: 99
//
smiles_representation: Cc1cc(-c2ccc3nc(-c4cnn(CC(C)(C)O)c4)nc(N4CCOC[C@@H]4C4CC4)c3c2)cn(C)c1=O
Kd / nM: 70
//
smiles_representation: Cn1cc(-c2ccc3nc(-c4cnn(CC(C)(C)O)c4)nc(N4CCOC[C@@H]4c4ccc(Cl)cc4)c3c2)ccc1=O
Kd / nM: 119
//
smiles_representation: Cc1noc(C)c1-c1ccc2nc(-c3cnn(CC(C)(C)O)c3)nc(N3CCNC[C@@H]3c3ccccc3)c2c1
Kd / nM: 88

Source listed as ChEMBL document CHEMBL4665641.
